System: SCID mice bearing twin HEK293-CCK2i4svR and wtHEK293 tumors
assay summary: Biodistribution in SCID mice bearing twin HEK293-CCK2i4svR and wtHEK293 xenografts
Type: in vivo
condition description: 24 h pi
measurement label: Biodistribution, Muscle (%IA/g)

compound: CC(C)(C)C(=O)CN1C(=O)[C@H](NC(=O)Nc2cccc(C(=O)NCCOCCOCCOCCNC(=O)[C@H](CCC(=O)O)NC(=O)CN3CCN(CC(=O)[O-])CCN(CC(=O)[O-])CCN(CC(=O)[O-])CC3)c2)CN(C2CCCCC2)c2ccccc21.[177Lu+3] (stereo in doubt) [[^177Lu]Lu-GAS1]
measurement units: %IA/g
observed value: 0.04

compound: CC(C)(C)C(=O)CN1C(=O)[C@H](NC(=O)Nc2cccc(C(=O)NCCOCCOCCOCCNC(=O)[C@H](CCC(=O)O)NC(=O)CCC(C(=O)O)N3CCN(CC(=O)[O-])CCN(CC(=O)[O-])CCN(CC(=O)[O-])CC3)c2)CN(C2CCCCC2)c2ccccc21.[67Ga+3] (stereo in doubt) [[^67Ga]Ga-GAS3]
measurement units: %IA/g
observed value: 0.06

compound: CC(C)(C)C(=O)CN1C(=O)[C@H](NC(=O)Nc2cccc(C(=O)NCCOCCOCCOCCNC(=O)[C@H](CCC(=O)O)NC(=O)CN3CCN(CC(=O)[O-])CCN(CC(=O)[O-])CCN(CC(=O)[O-])CC3)c2)CN(C2CCCCC2)c2ccccc21.[111In+3] (stereo in doubt) [[^111In]In-GAS1]
measurement units: %IA/g
observed value: 0.06

compound: CC(C)(C)C(=O)CN1C(=O)[C@H](NC(=O)Nc2cccc(C(=O)NCCOCCOCCOCCNC(=O)[C@@H](CCC(=O)O)NC(=O)CCC(C(=O)O)N3CCN(CC(=O)[O-])CCN(CC(=O)[O-])CCN(CC(=O)[O-])CC3)c2)CN(C2CCCCC2)c2ccccc21.[111In+3] (some centres unmarked) [[^111In]In-GAS3]
measurement units: %IA/g
observed value: 0.08

compound: CC(C)(C)C(=O)CN1C(=O)[C@H](NC(=O)Nc2cccc(C(=O)NCCOCCOCCOCCNC(=O)[C@H](CCC(=O)O)NC(=O)CCC(C(=O)O)N3CCN(CC(=O)[O-])CCN(CC(=O)[O-])CCN(CC(=O)[O-])CC3)c2)CN(C2CCCCC2)c2ccccc21.[177Lu+3] (stereo in doubt) [[^177Lu]Lu-GAS3]
measurement units: %IA/g
observed value: 0.03

compound: CC(C)(C)C(=O)CN1C(=O)[C@H](NC(=O)Nc2cccc(C(=O)NCCOCCOCCOCCNC(=O)[C@@H](CCC(=O)O)NC(=O)CCC(C(=O)[O-])N3CCN(CC(=O)[O-])CCN(CC(=O)[O-])CC3)c2)CN(C2CCCCC2)c2ccccc21.[111In+3] (some centres unmarked) [[^111In]In-GAS2]
measurement units: %IA/g
observed value: 0.08

compound: CC(C)(C)C(=O)CN1C(=O)[C@H](NC(=O)Nc2cccc(C(=O)NCCOCCOCCOCCNC(=O)[C@H](CCC(=O)O)NC(=O)CN3CCN(CC(=O)[O-])CCN(CC(=O)[O-])CCN(CC(=O)[O-])CC3)c2)CN(C2CCCCC2)c2ccccc21.[67Ga+3] (stereo in doubt) [[^67Ga]Ga-GAS1]
measurement units: %IA/g
observed value: 0.05

compound: CC(C)(C)C(=O)CN1C(=O)[C@H](NC(=O)Nc2cccc(C(=O)NCCOCCOCCOCCNC(=O)[C@H](CCC(=O)O)NC(=O)CCC(C(=O)[O-])N3CCN(CC(=O)[O-])CCN(CC(=O)[O-])CC3)c2)CN(C2CCCCC2)c2ccccc21.[67Ga+3] (stereo in doubt) [[^67Ga]Ga-GAS2]
measurement units: %IA/g
observed value: 0.02
